# Test system: SIV (MAC251)
# assayInfo: inhibition of virus-induced cytopathicity in MT-4 cells, SIV (MAC251)
# Type: cell-based, Simian immunodeficiency virus
# conditionDescription: Simian immunodeficiency virus, MT4, 120 h, read-out: EC50 SIV MAC251
Examples of compounds with documented EC50 follow.

givenSmiles	targetEntity	valueUnit	resultModifier	EC50
Oc1nc(O)c2c(n1)Oc1nc(O)nc(O)c1C2c1ccc(Br)cc1	SIV (MAC251)	µM	>	309
Oc1nc(S)nc2c1C(c1ccc(Cl)cc1)c1c(O)nc(S)nc1O2	SIV (MAC251)	µM	=	100
Oc1nc(O)c2c(n1)Oc1nc(O)nc(O)c1C2c1ccccc1	SIV (MAC251)	µM	=	194
O=[N+]([O-])c1ccc(C2c3c(O)nc(S)nc3Oc3nc(S)nc(O)c32)cc1	SIV (MAC251)	µM	=	5.5
